# Experimental Details: Solubility in distilled water and normal saline, visual inspection and HPLC
# Type: physicochemical
# Particulars: solvent NS (normal saline)
Quantity Name: Area (HPLC)
Lab note: jot down the number only; don't add units.

Example compounds with recorded Area (HPLC):
CNC(=O)c1ccc[n+](COC(=O)c2ccccc2Nc2cccc(C)c2C)c1 [MFA-MeNIC, MFA- N-Methylnicotinamide]: 13844823
Cc1cccc(Nc2ccccc2C(=O)OC[n+]2cccc(C(=O)N(C)C)c2)c1C [MFA-2MeNIC]: 18274457

Which measured Area (HPLC) value corresponds to Cc1cccc(Nc2ccccc2C(=O)OC[n+]2cccc(C(N)=O)c2)c1C [MFA-NIC, MFA-Nicotinamide] ? 2350506

---

# Experimental Details: Solubility in distilled water and normal saline, visual inspection and HPLC
# Format: physicochemical
# Particulars: distilled water, water, solvent DW (distilled water); read-out: Solubility after molecular weight correction factor
# Text: The solubility of each molecular structure was checked in distilled water as well as in normal saline.
Quantity Name: solubility (µg/mL)
Provide the reading as a plain figure in µg/mL.

Example molecules with recorded solubility:
CNC(=O)c1ccc[n+](COC(=O)c2ccccc2Nc2cccc(C)c2C)c1 [MFA-MeNIC, MFA- N-Methylnicotinamide]: 200
Cc1cccc(Nc2ccccc2C(=O)OC[n+]2cccc(C(N)=O)c2)c1C [MFA-NIC, MFA-Nicotinamide]: 130

Which measured solubility value corresponds to Cc1cccc(Nc2ccccc2C(=O)OC[n+]2cccc(C(=O)N(C)C)c2)c1C [MFA-2MeNIC] ? 180

---

# Experimental Details: Solubility in distilled water and normal saline, visual inspection and HPLC
# Format: physicochemical
# Particulars: aqueous solution; analogs compared with MFA
Quantity Name: Aqueous solubility checked on HPLC

Cc1cccc(Nc2ccccc2C(=O)OC[n+]2cccc(C(=O)N(C)C)c2)c1C: much higher
Cc1cccc(Nc2ccccc2C(=O)OC[n+]2cccc(C(N)=O)c2)c1C [MFA-NIC, MFA-Nicotinamide]: much higher
CNC(=O)c1ccc[n+](COC(=O)c2ccccc2Nc2cccc(C)c2C)c1 [MFA-MeNIC, MFA- N-Methylnicotinamide]: much higher

---

# Experimental Details: Stability study of MFA analogs in acetonitrile and distilled water, 1 day and 7 days, visual and HPLC
# Format: physicochemical
# Particulars: acetonitrile, room temperature (~25° C.), 1 day
Quantity Name: Stability 1 Day ACN RT

Cc1cccc(Nc2ccccc2C(=O)OC[n+]2cccc(C(=O)N(C)C)c2)c1C: Stable
Cc1cccc(Nc2ccccc2C(=O)OCOC(=O)c2ccc[n+](C)c2)c1C: Stable
Cc1cccc(Nc2ccccc2C(=O)OC[n+]2cccc(C(N)=O)c2)c1C [MFA-NIC, MFA-Nicotinamide]: Stable
CNC(=O)c1ccc[n+](COC(=O)c2ccccc2Nc2cccc(C)c2C)c1 [MFA-MeNIC, MFA- N-Methylnicotinamide]: Stable

---

# Experimental Details: Solubility in distilled water and normal saline, visual inspection and HPLC
# Format: physicochemical
# Particulars: solvent DW (distilled water)
Quantity Name: Area (HPLC)
Lab note: jot down the number only; don't add units.

Which measured Area (HPLC) value corresponds to Cc1cccc(Nc2ccccc2C(=O)OC[n+]2cccc(C(N)=O)c2)c1C [MFA-NIC, MFA-Nicotinamide] ? 6867539

CNC(=O)c1ccc[n+](COC(=O)c2ccccc2Nc2cccc(C)c2C)c1 [MFA-MeNIC, MFA- N-Methylnicotinamide] ? 10643970

Cc1cccc(Nc2ccccc2C(=O)OC[n+]2cccc(C(=O)N(C)C)c2)c1C ? 9876828
